Data origin: ChEMBL document CHEMBL3352329

test system: Debaryomyces hansenii; experiment: Antifungal activity against Candida famata VKMY-9 assessed as growth inhibition after 48 hrs by broth microdilution method; format: functional; conditions: VKMY-9, 48 h
Would you kindly list MIC95 for each of these molecules?
Answers are plain numbers, in µg/mL.

Some molecules with recorded MIC95:
INSERT INTO assay_data (molecule, experimental_system, value) VALUES
  ('COc1cc(O)cc(/C=C/c2ccc(O)cc2)c1', 'Debaryomyces hansenii', 18),
  ('Nc1nc(=O)[nH]cc1F [FLUCYTOSINE]', 'Debaryomyces hansenii', 2),
  ('COc1ccc(/C=C/c2cc(O)cc(OC)c2)cc1', 'Debaryomyces hansenii', 9);

Lab note: each molecule below needs its MIC95 filled in.
1. Oc1ccc([C@H]2Oc3ccc(/C=C/c4cc(O)cc5c4[C@@H](c4cc(O)cc(O)c4)[C@H](c4ccc(O)cc4)O5)cc3[C@@H]2c2cc(O)cc3c2[C@H](c2cc(O)cc(O)c2)[C@@H](c2ccc(O)cc2)O3)cc1 (mixture of isomers)
2. COc1ccc(/C=C/c2cc(O)cc(O)c2)cc1 [RESVERATROL 4'-METHYL ETHER]

1: 18; 2: 18

# value lookup — system Debaryomyces hansenii, readout MIC95, item COc1cc(/C=C/c2ccc(O)cc2)cc(OC)c1 [PTEROSTILBENE] 7

* * *

Please respond with reported MIC95 for every item in the list.
system: Pichia kudriavzevii; assay: Antifungal activity against Candida krusei ATCC 6258 assessed as growth inhibition after 48 hrs by broth microdilution method; format: functional; details: ATCC 6258, 48 h
One number for each entry, in µg/mL.

INSERT INTO results (compound, assay_metric, value) VALUES
  ('COc1cc(/C=C/c2ccc(O)cc2)cc(OC)c1', 'MIC95', 28),
  ('Nc1nc(=O)[nH]cc1F', 'MIC95', 4),
  ('Oc1ccc([C@H]2Oc3ccc(/C=C/c4cc(O)cc5c4[C@@H](c4cc(O)cc(O)c4)[C@H](c4ccc(O)cc4)O5)cc3[C@@H]2c2cc(O)cc3c2[C@H](c2cc(O)cc(O)c2)[C@@H](c2ccc(O)cc2)O3)cc1 (mixture of isomers)', 'MIC95', 300);

Need MIC95 for each of these compounds.
1. COc1ccc(/C=C/c2cc(O)cc(O)c2)cc1
2. COc1cc(O)cc(/C=C/c2ccc(O)cc2)c1
3. COc1ccc(/C=C/c2cc(O)cc(OC)c2)cc1

[150, 300, 37]

* * *

What MIC95 was measured for each of the following?
system: Nakaseomyces glabratus; assay: Antifungal activity against Candida glabrata ATCC 90030 assessed as growth inhibition after 48 hrs by broth microdilution method; assay type: functional; conditions: ATCC 90030, 48 h
Numbers only, in µg/mL.

INSERT INTO measurements (compound, assay_metric, unit_of_measure, value) VALUES
  ('Oc1ccc([C@H]2Oc3ccc(/C=C/c4cc(O)cc5c4[C@@H](c4cc(O)cc(O)c4)[C@H](c4ccc(O)cc4)O5)cc3[C@@H]2c2cc(O)cc3c2[C@H](c2cc(O)cc(O)c2)[C@@H](c2ccc(O)cc2)O3)cc1 (mixture of isomers)', 'MIC95', 'µg/mL', 300),
  ('COc1ccc(/C=C/c2cc(O)cc(O)c2)cc1', 'MIC95', 'µg/mL', 150),
  ('Nc1nc(=O)[nH]cc1F', 'MIC95', 'µg/mL', 4),
  ('COc1ccc(/C=C/c2cc(O)cc(OC)c2)cc1', 'MIC95', 'µg/mL', 37),
  ('COc1cc(/C=C/c2ccc(O)cc2)cc(OC)c1', 'MIC95', 'µg/mL', 28);

# next compound below
Query MIC95 on Nakaseomyces glabratus for `COc1cc(O)cc(/C=C/c2ccc(O)cc2)c1` 300
